EC50 values by entry
Biological target: hGIPR (Homo sapiens, UniProt P48546)
Sequence (P48546 22-466): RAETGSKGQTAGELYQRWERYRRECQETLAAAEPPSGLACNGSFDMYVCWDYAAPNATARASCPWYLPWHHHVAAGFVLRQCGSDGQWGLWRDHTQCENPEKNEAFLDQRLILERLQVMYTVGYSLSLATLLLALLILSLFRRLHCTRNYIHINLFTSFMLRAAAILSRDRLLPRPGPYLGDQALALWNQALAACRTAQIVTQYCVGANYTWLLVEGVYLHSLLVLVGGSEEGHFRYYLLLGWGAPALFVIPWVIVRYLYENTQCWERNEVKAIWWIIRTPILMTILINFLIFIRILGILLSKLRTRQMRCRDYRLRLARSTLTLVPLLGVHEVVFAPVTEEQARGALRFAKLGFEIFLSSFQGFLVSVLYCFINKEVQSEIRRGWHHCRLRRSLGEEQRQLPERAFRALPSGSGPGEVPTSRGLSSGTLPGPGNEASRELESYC
Assay: Functional cAMP activation in the presence of 0.1% casein (no HSA);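 also: intracellular cAMP rise after 30 min at 37 °C read by HTRF against a standard curve, scaled between buffer alone (0%) and top control ligand concentration (100%), four-parameter fit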
Assay type: cell-based
Conditions: in the presence of 0.1% casein (no HSA); geometric mean; read-out: Relative cAMP EC50, hGIPR
Starred links: 1 amine or outer side, 2 acyl side, 3 side chain; linkers in the order of their positions; H or OH if unused. Non-standard residues stand in square brackets, D forms with d. Groups on a side chain read outwards from the residue. *: point of attachment. C20 diacid = O=C(O)CCCCCCCCCCCCCCCCCCC(=O)*; C18 diacid = O=C(O)CCCCCCCCCCCCCCCCC(=O)*; αMePhe(2-F) = C[C@](N)(Cc1ccccc1F)C(=O)O; γGlu = O=C(O)[C@H](CCC(=O)[*:2])N[*:1]; αMe4Pal = C[C@](N)(Cc1ccncc1)C(=O)O; αMeY = C[C@](N)(Cc1ccc(O)cc1)C(=O)O; 4Pal = N[C@@H](Cc1ccncc1)C(=O)O; αMeL = CC(C)C[C@](C)(N)C(=O)O; αMeS = C[C@](N)(CO)C(=O)O; Orn = NCCC[C@H](N)C(=O)O; AEEA = NCCOCCOCC(=O)O; Aib = CC(C)(N)C(=O)O
// return numeric value only (unit: nM, not printed)

Below, 2 substances whose answers are already recorded.
# SUBSTANCE, MEASURED_ATTRIBUTE, UNIT_ABBREV, ASSAY_RESULT
data = [
    ("H-Y[Aib]QGT[αMePhe(2-F)]TSD[4Pal][αMeS]I[αMeL]LD[Orn]K([AEEA-γGlu-γGlu-C18 diacid])AQ[αMe4Pal]EFI[dE][αMeY]LIEGGPSSGEPPPSGSE-NH2 [Example 1179]", "EC50", "nM", 0.0102),
    ("H-Y[Aib]QGTFTSD[4Pal]SQ[αMeL]LD[Orn]K([γGlu-γGlu-C18 diacid])AQ[αMe4Pal]AFIE[αMeY]LIE[Aib]GPSSGEPPPSGSEE-NH2 [Example 1093]", "EC50", "nM", 0.152),
]

Measured EC50 of H-Y[Aib]QGTFTSDFSK[αMeL]LDKK([AEEA-γGlu-C20 diacid])AQ[Aib]AFIEYLLAGGPSSGEPPPGGS-NH2 [Example 9] : 0.205
